The values you see were collected from PubChem BioAssay.

Exercise: state measured inhibition for each of the compounds provided.
- Tested on: Botulinum neurotoxin type F light chain protease (Clostridium botulinum)
- Protocol details: Botulinum neurotoxin type F light chain protease inhibition, multiplex microsphere flow cytometry, validation set (AID 588459)
- Condition label: multiplex microsphere protease substrate cleavage assay, at 10 µM, stronger effect = higher value
Calls of active or inactive are those of the source. The rule behind the calls is not given here.

Record excerpt, results attached:
Exercise: // query inhibition value for entry `c1ccc2c(CC3=NCCN3)cccc2c1`
Solution: -3.3% (inactive)

Exercise: And then `N=c1nc(N2CCCCC2)cc(N)n1O` , what is it?
Solution: -2.3% (inactive)

Exercise: Please answer likewise for CCOc1ccc(C(=O)NC(C)C2COc3ccccc3O2)cc1 (stereo unspecified)
Solution: -6.8% (inactive)

Exercise: Further, for `CN(C)C(=O)Oc1ccc[n+](C)c1` ?
Solution: -1.5% (inactive)

Exercise: Record: Cc1nc(NC(CC(C)C)C(=O)O)c2nc(C)oc2n1 (stereo unspecified)
Solution: 1.1% (inactive)

List reported inhibition for each of these compounds:
1. CN(C)C(=O)C(CCN1CCC(O)(c2ccc(Cl)cc2)CC1)(c1ccccc1)c1ccccc1
2. CCOCC(=O)Nc1nc2ccccc2s1
3. Nc1nc(Cl)nc2c1ncn2[C@H]1C[C@H](O)[C@@H](CO)O1
4. OCCN1CCN(CCCN2c3ccccc3Sc3ccc(Cl)cc32)CC1
5. COc1ccc(C2c3c(n[nH]c3C)CC(C)(O)C2C(C)=O)cc1OC (stereo unspecified)
6. Cc1ccc(CN2CCN(CCCc3ccccc3)CC2CCO)cc1 (stereo unspecified)

Solution:
1. -1.4% (inactive)
2. -2.1% (inactive)
3. -8.7% (inactive)
4. -0.8% (inactive)
5. 4% (inactive)
6. 0.2% (inactive)
